- experiment.summary: NCI Yeast Anticancer Drug Screen. Data for the mlh1 rad18 strain (AID 175)
- test.context: S. cerevisiae mlh1 rad18 strain growth inhibition; at 50.0 µM; stronger effect = higher value
This is part of a sample that, as a whole, favours compounds with a hit. Of some 79,000 tested, about 15% had one in any assay.
Please provide measured growth inhibition for the entries that follow.
Numbers only, in %.

Examples with answers:
NC(=S)N/N=C/C=C/c1ccco1: 52
CCCC(C)c1ccc(C(=O)O)cc1 (configuration not stated): 20.9
O=C(NC1CC1)c1ccccc1: -15.7
O=C(CCN1CCCCC1)c1cc2cc([N+](=O)[O-])ccc2oc1=O: 32.6
O=S1(=O)COc2ccccc2-c2ncncc21: -11.8

For each of the items listed, what is its growth inhibition?
1. COc1ccc(C(C)=O)cc1
2. CCCCc1ccc(-n2cnc3c(=O)[nH]c(N)nc32)cc1

1. 18.9
2. 26.5

----------
- experiment.summary: NCI Yeast Anticancer Drug Screen. Data for the bub3 strain (AID 167)
- test.context: S. cerevisiae bub3 mutant strain, at 50.0 µM, stronger effect = higher value
About 79,000 compounds went through this panel and 15% of them were active in at least one assay; those are over-represented in the sample as a whole.
measured.property: growth inhibition (%)
Answers are plain numbers, in %.

Cc1nc(C)c(CC#N)s1: -2

Hi! Can you tell me growth inhibition for each of these compounds?
1. CCOc1cn(C2CC(O)C(CO)O2)c(=O)[nH]c1=O (stereo not drawn)
2. COc1ccc2c(c1)C(=O)OCCC2
3. CC1=C(Br)C(=O)C(c2c(C)cc(C)cc2C)=C(Br)C1=O
4. NC1=C(Br)C(=O)c2[nH]c(=O)[nH]c(=O)c2C1=O
5. CNCc1ccccc1[N+](=O)[O-]
6. N#CCCOCCSCCC#N
7. Cc1ccc2c(c1)CN(C)c1ccc(C)cc1CN2C

1. -16.2
2. -36.4
3. 97.5
4. 7.15
5. 3.7
6. 1
7. 9.65

// each listed compound needs a value for growth inhibition
1. CCCC(C)c1ccc(C(=O)O)cc1 (stereo not drawn)
2. Cn1c(=O)[nH]c2c(c1=O)CCCS2
3. CC(C)(C)c1ccc(OCCOCCCl)c(Cl)c1
4. CCCCCCCCCCCCCCCCCCCCc1ccccc1
5. O=C(COc1ccc(Cl)c(Cl)c1)NCc1cccc([N+](=O)[O-])c1

[-18.1, -19.6, 8.65, -14.2, 14.9]

----------
Could you please report measured growth inhibition for the items listed next?
- experiment.summary: NCI Yeast Anticancer Drug Screen. Data for the sgs1 mgt1 strain (AID 161);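 note: 0% = growth of cultures given vehicle only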
- test.context: S. cerevisiae sgs1 mgt1 strain, at 50.0 µM, stronger effect = higher value
The panel holds about 79,000 compounds, 15% with a hit somewhere; the sample as a whole holds those more often.
Numbers only, in %.

Cc1ccc2c(c1)CN(C)c1ccc(C)cc1CN2C: 22.9
COc1cc2nc(C)oc(=O)c2cc1OC: 10.9
CC(CO)CCNc1ncnc2c1ncn2CCC(=O)O (stereo unspecified): -29.9
CN(C)C(=S)/N=c1\ssc(=S)n1Cc1cccs1: -19.6
NC(=O)C(N)C(N)=NCc1ccccc1 (stereo unspecified): 4.15

--- query ---
Query (compound): Clc1ccc(OCC(COc2ccc(Cl)cc2)(COc2ccc(Cl)cc2)COc2ccc(Cl)cc2)cc1 ; field requested: growth inhibition
-4.8
